TARGET DESC: Cytochrome P450 3A7 (Homo sapiens)
PROTOCOL DETAILS: Cytochrome P450 family 3 subfamily A member 7 (CYP3A7) small molecule antagonists: luciferase biochemical qHTS assay (AID 1963596); note: % is set by controls: 0 for no effect and ±100 for the full control effect; nearly all actives have a fitted effect of over 40% in size
CONDITION: P450-Glo CYP3A7 enzyme luminescence, 1 h; series mostly up to 57.4 µM
Records with an inconclusive call do not appear. Calls of active or inactive are those of the source. Calls come from the whole dose curve; as a rule, active = well fitted inhibition curve with a large enough effect; inconclusive = small, poorly fitted or top-dose-only effect; inactive = no such curve, though single readings can be large or run the other way.
MEASUREMENT NAME: activity change, negative = inhibition

What is its activity change, negative = inhibition for Cytochrome P450 3A7 (Homo sapiens)? Entry: C[C@@H]1CC[C@@]2(OC1)O[C@H]1C[C@H]3[C@@H]4CC[C@H]5C[C@@H](O)CC[C@]5(C)[C@H]4CC(=O)[C@]3(C)[C@H]1[C@@H]2C
-8.63% [at 4.83 µM] (inactive)

// lookup activity change, negative = inhibition | system=Cytochrome P450 3A7 (Homo sapiens) | key= CCN(CCO)CCCC(C)Nc1ccnc2cc(Cl)ccc12 (stereo not drawn)
10.6% [at 4.83 µM] (inactive)

Test system Cytochrome P450 3A7 (Homo sapiens); read-out activity change, negative = inhibition; what value for NC(Cc1ccc(Cl)cc1)C(=O)O (stereo not drawn) ?
-2.28% [at 0.91 µM] (inactive)

Request body: readout activity change, negative = inhibition, system Cytochrome P450 3A7 (Homo sapiens), query O=C(O)C1CN(Cc2ccc(-c3nc4cc(Cc5ccccc5F)ccc4s3)c(F)c2)C1 . Return the value.
-6.84% [at 11.5 µM] (inactive)

Hi! What's the reported activity change, negative = inhibition for NC(N)=NCCC[C@H](N)C(=O)O on Cytochrome P450 3A7 (Homo sapiens)?
2.52% [at 4.83 µM] (inactive)

Record CN1CCN(CC(=O)N2c3ccccc3C(=O)Nc3cccnc32)CC1 : what is its activity change, negative = inhibition with Cytochrome P450 3A7 (Homo sapiens)?
12.3% [at 4.83 µM] (inactive)

What value of activity change, negative = inhibition on Cytochrome P450 3A7 (Homo sapiens) does N=C(N)N1CCc2ccccc2C1 have?
2.18% [at 4.83 µM] (inactive)

Can you look up activity change, negative = inhibition on Cytochrome P450 3A7 (Homo sapiens) for N[C@@H](C(=O)N[C@@H]1C(=O)N2C(C(=O)O)=C(Cl)CS[C@H]12)c1ccccc1 ?
-8.83% [at 11.5 µM] (inactive)

###

PROTOCOL DETAILS: Viability qHTS for spleen associated tyrosine kinase inhibitor (SYKi) naive MV4-11 cells (AID 1963823); note: nearly all actives have a fitted effect of over 40% in size; note: potency is the fitted concentration of half-maximal effect
CONDITION: MV4-11 AML viability, CellTiter-Glo luminescence, 72 h; series mostly up to 45 µM
Inconclusive results are not listed. The source made the active and inactive calls. Calls follow the shape of the dose curve; as a rule, active = well fitted cell-killing curve with a large enough effect; inconclusive = small, poorly fitted or top-dose-only effect, or effect the other way; inactive = no such curve, though single readings can be large or run the other way.
MEASUREMENT NAME: Potency

Recorded results for 5 compounds are shown here.
INSERT INTO results (compound, measurement_name, value_measured) VALUES
  ('CC(=O)NC(CS)C(=O)O (configuration not stated)', 'Potency', 'inactive'),
  ('CC1(CO)CC2C(O)C3=C(CC(C)(O)C2C1)C(=O)OC3 (configuration not stated)', 'Potency', 'inactive'),
  ('O=C(N[C@H]1CCN(C(=O)c2cc(C(F)(F)F)cc(C(F)(F)F)c2)[C@H](Cc2ccc(Cl)cc2)C1)c1ccnc2ccccc12', 'Potency', '8.93 µM (active)'),
  ('O=C1CC(c2ccc(Cl)cc2)CC(=O)N1', 'Potency', 'inactive'),
  ('CCNC(=O)C#Cc1ccc2c(C(=Nc3ccc(CN(C)C)cc3)c3ccccc3)c(O)[nH]c2c1', 'Potency', '0.0126 µM (active)');

Entry NC(CS)C(=O)O (configuration not stated) : reported Potency = ?
inactive

Quick one: Potency of CC1=C(CC(=O)O)c2cc(F)ccc2/C1=C\c1ccc(S(C)=O)cc1 (configuration not stated) ?
inactive

Would you mind telling me what Potency value was observed for O=C(O)CCCCC1CCSS1 (configuration not stated) ?
inactive

What value of Potency has been reported for the following compound? CC(C)c1cc2c(cc1S(=O)(=O)O)[C@@]1(C)CCC[C@@](C)(C(=O)O)[C@@H]1CC2
inactive

Quick check: Potency of Oc1c(Cl)cc(Cl)c2cccnc12 ?
5.25 µM (active)

Just for reference, PubChem BioAssay (NCATS) is where these values come from.
